# Test Parameters: human gut metagenome, 24 h, 2 µM; further: call rule not given here
Value Kind: Bacterial Biotransformation

compound="CC(C)(C)NCC(O)COc1cccc2c1CC(O)C(O)C2 (configuration not stated) [NADOLOL]" value_kind="Bacterial Biotransformation" observed_value="Compound NOT metabolized"
compound="Nc1nc(N)nc(-c2cc(Cl)ccc2Cl)n1.O=C(O)/C=C\\C(=O)O [IRSOGLADINE MALEATE]" value_kind="Bacterial Biotransformation" observed_value="Compound NOT metabolized"
compound="CCCC(C)(COC(N)=O)COC(=O)NC(C)C (configuration not stated) [CARISOPRODOL]" value_kind="Bacterial Biotransformation" observed_value="Compound metabolized"
compound="CCN(CC)CCNC(=O)c1ccc(NC(C)=O)cc1 [ACECAINIDE]" value_kind="Bacterial Biotransformation" observed_value="Compound NOT metabolized"
compound="CCc1oc2ccccc2c1C(=O)c1cc(Br)c(O)c(Br)c1 [BENZBROMARONE]" value_kind="Bacterial Biotransformation" observed_value="Compound NOT metabolized"

# input for lookup
Challenge: Using the record for CCCCC(=O)O[C@]1(C(=O)CO)[C@@H](C)C[C@H]2[C@@H]3CCC4=CC(=O)C=C[C@]4(C)[C@@]3(F)[C@@H](O)C[C@@]21C [BETAMETHASONE VALERATE] , state its measured Bacterial Biotransformation.
Response given: Compound NOT metabolized

----------
# Test Parameters: human gut metagenome, 24 h, 2 µM
Value Kind: Bacterial Biotransformation

Example entries and their recorded answers appear below.
compound="CC(=O)Nc1ccc(OC(C)=O)cc1 [DIACETAMATE]" observed_value="Compound metabolized"
compound="CN(C)CCC=C1c2ccccc2COc2ccccc21 [DOXEPIN]" observed_value="Compound metabolized"
compound="CCN(C(C)=O)c1cccc(-c2ccnc3c(C#N)cnn23)c1 [ZALEPLON]" observed_value="Compound metabolized"
compound="CC[C@@]1(O)C(=O)OCc2c1cc1n(c2=O)Cc2cc3c(CN(C)C)c(O)ccc3nc2-1 [TOPOTECAN]" observed_value="Compound NOT metabolized"
compound="C#C[C@]1(OC(C)=O)CC[C@H]2[C@@H]3CCC4=CC(=O)CC[C@@H]4[C@H]3CC[C@@]21C [NORETHINDRONE ACETATE]" observed_value="Compound metabolized"

# input for lookup
Challenge: Using the record for `COc1ccc(/C=C/C(=O)Nc2ccccc2C(=O)O)cc1OC` , state its measured Bacterial Biotransformation.
Response given: Compound NOT metabolized

----------
# Assay Details: The drug is tested on WLS-027 corresponding to human gut metagenome with ENA study accession number: PRJEB37062 and ENA sample accession number: ERS12561744 for biotransformation under anaerobic condition. The drug concentrations were measured over 9 timepoints collected between 0 and 24 hours of incubation by liquid-chromatography-coupled mass spectrometry (LC–MS)
# Test Parameters: 2 µM
Value Kind: Bacterial Biotransformation

compound="CN1CCN2c3ccccc3Cc3ccccc3C2C1 (stereo not drawn)" observed_value="Compound NOT metabolized"
compound="CCN(CC)C(=O)C1(c2ccccc2)CC1CN (stereo not drawn)" observed_value="Compound NOT metabolized"

----------
# Assay Details: The drug is tested on WLS-082 corresponding to human gut metagenome with ENA study accession number: PRJEB37062 and ENA sample accession number: ERS12561751 for biotransformation under anaerobic condition. The drug concentrations were measured over 9 timepoints collected between 0 and 24 hours of incubation by liquid-chromatography-coupled mass spectrometry (LC–MS)
# Test Parameters: 2 µM
Value Kind: Bacterial Biotransformation

compound="CC(C)(C)NC(=O)[C@H]1CC[C@H]2[C@@H]3CC[C@H]4NC(=O)C=C[C@]4(C)[C@H]3CC[C@]12C [FINASTERIDE]" value_kind="Bacterial Biotransformation" observed_value="Compound metabolized"
compound="Cc1cc2c(s1)Nc1ccccc1N=C2N1CCN(C)CC1 [OLANZAPINE]" value_kind="Bacterial Biotransformation" observed_value="Compound NOT metabolized"
compound="CN(C)C(=O)Oc1cc(OC(=O)N(C)C)cc(C(O)CNC(C)(C)C)c1 (configuration not stated) [BAMBUTEROL]" value_kind="Bacterial Biotransformation" observed_value="Compound NOT metabolized"
compound="CC(NC(C)(C)C)C(=O)c1cccc(Cl)c1 (configuration not stated) [BUPROPION]" value_kind="Bacterial Biotransformation" observed_value="Compound NOT metabolized"
compound="CC(C)(C)N.CCC[C@H](N[C@@H](C)C(=O)N1[C@H](C(=O)O)C[C@@H]2CCCC[C@@H]21)C(=O)OCC [PERINDOPRIL ERBUMINE]" value_kind="Bacterial Biotransformation" observed_value="Compound metabolized"

Challenge: Using the record for CC(N)C12CC3CC(CC(C3)C1)C2 (configuration not stated) [RIMANTADINE] , state its measured Bacterial Biotransformation.
Response given: Compound NOT metabolized

Challenge: Using the record for COc1cc(NC(C)CCCN)c2ncccc2c1.O=P(O)(O)O.O=P(O)(O)O (configuration not stated) [PRIMAQUINE PHOSPHATE] , state its measured Bacterial Biotransformation.
Response given: Compound metabolized
